# test details: Phase 1 open-label, fixed-sequence, single-ascending dose and food-effect PK study of MT1621 in adult healthy subjects
# Type: in vivo, human
# experimental parameters: both sexes, human, plasma, oral, 43.3 mg/kg, Treatment A: single 43.3 mg/kg MT1621, fasted; baseline-adjusted plasma; geometric mean (geometric CV %)
measurement label: AUC(0-inf) (µg·h/mL)
Numbers only, in µg·h/mL.

Given Cc1cn([C@H]2C[C@H](O)[C@@H](CO)O2)c(=O)[nH]c1=O [dT, β-D-2′-deoxythymidine] , respond with its AUC(0-inf). 0.00356

Now consider a different molecule.
Look up AUC(0-inf) of Nc1ccn([C@H]2C[C@H](O)[C@@H](CO)O2)c(=O)n1 [dC, β-D-2′-deoxycytidine] and report it. 0.0484
